molecular target: PXR (NR1I2) (Homo sapiens, UniProt O75469); experiment: ATG_PXR_TRANS: Factorial reporter gene assay (HepG2); format: cell-based; parameters: endogenous in cells; host or cells: HepG2; details: HepG2; scale not given, looks like -log10 of molar active concentration; 0 = no activity
Sequence (O75469 whole entry): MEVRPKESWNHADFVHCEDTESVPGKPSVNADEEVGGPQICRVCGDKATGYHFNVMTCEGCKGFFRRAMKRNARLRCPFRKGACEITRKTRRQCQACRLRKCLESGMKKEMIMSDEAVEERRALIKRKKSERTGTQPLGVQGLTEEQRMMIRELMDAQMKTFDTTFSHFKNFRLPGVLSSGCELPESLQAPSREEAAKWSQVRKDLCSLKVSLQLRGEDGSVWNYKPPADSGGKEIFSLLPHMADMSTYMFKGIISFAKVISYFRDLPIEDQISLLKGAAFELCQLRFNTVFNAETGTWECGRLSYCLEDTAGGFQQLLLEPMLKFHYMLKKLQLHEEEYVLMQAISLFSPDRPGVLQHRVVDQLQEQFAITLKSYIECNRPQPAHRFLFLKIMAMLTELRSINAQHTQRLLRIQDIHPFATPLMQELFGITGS
As shown below, each of these compounds has a reported ATG_PXR_TRANS value.
Response field accepts a number only; no unit should be typed.

Worked cases, ATG_PXR_TRANS given:
CC(C)N1C(=O)c2ccccc2NS1(=O)=O [r37]	4.328
CCCCOCN(C(=O)CCl)c1c(CC)cccc1CC [r46]	5.959
CNC(=O)Oc1cccc2ccccc12 [r52]	0
Cc1ccccc1CO[C@@H]1C[C@@]2(C(C)C)CC[C@]1(C)O2 [r64]	5.18

Next up:
Request: Could you please provide reported ATG_PXR_TRANS for CCC(C)Nc1c([N+](=O)[O-])cc(C(C)(C)C)cc1[N+](=O)[O-] (stereo not shown) [r48] ? Thanks!
Response: 5.114
